Reference source: PubChem BioAssay (Tox21)

- test_details: qHTS assay to test for compound auto fluorescence at 590 nm (red) in HEK293 cells (AID 720679); note: % is set by controls: 0 for no effect and ±100 for the full control effect
- measurement_setup: red autofluorescence 540/590 nm; series mostly up to 91.3 µM
Active and inactive are the calls of the source. Calls come from the whole dose curve; as a rule, active = well fitted curve in the direction sought with a large enough effect in the repeat runs; inconclusive = weak or mixed curves; inactive = flat fitted curve, though single readings scatter.
measured_attribute: fluorescence, % of fluorescent control

As a guide, the following entries are already answered.
{"molecule": "COC(=O)COc1ccc(Cl)cc1Cl", "meas_value": "inactive"}
{"molecule": "O=[N+]([O-])c1cccc2c([N+](=O)[O-])cccc12", "meas_value": "inactive"}
{"molecule": "C[C@@H]1CN(C2CCC(C#N)(c3ccc(F)cc3)CC2)CC[C@]1(C(=O)O)c1ccccc1 (stereo partly specified)", "meas_value": "0.571% [at 18.6 µM] (inactive)"}
{"molecule": "O=C(Cc1ccccc1)OCc1ccccc1", "meas_value": "inactive"}
{"molecule": "CCOC(=O)NC(=S)Nc1ccccc1NC(=S)NC(=O)OCC", "meas_value": "inactive"}

Given ClC(Cl)(Cl)C(Cl)(Cl)Cl , state its recorded fluorescence, % of fluorescent control. inactive

---

- assay_target: Acetylcholinesterase (Homo sapiens) (UniProt P22303)
- Sequence (P22303 whole entry, looked up): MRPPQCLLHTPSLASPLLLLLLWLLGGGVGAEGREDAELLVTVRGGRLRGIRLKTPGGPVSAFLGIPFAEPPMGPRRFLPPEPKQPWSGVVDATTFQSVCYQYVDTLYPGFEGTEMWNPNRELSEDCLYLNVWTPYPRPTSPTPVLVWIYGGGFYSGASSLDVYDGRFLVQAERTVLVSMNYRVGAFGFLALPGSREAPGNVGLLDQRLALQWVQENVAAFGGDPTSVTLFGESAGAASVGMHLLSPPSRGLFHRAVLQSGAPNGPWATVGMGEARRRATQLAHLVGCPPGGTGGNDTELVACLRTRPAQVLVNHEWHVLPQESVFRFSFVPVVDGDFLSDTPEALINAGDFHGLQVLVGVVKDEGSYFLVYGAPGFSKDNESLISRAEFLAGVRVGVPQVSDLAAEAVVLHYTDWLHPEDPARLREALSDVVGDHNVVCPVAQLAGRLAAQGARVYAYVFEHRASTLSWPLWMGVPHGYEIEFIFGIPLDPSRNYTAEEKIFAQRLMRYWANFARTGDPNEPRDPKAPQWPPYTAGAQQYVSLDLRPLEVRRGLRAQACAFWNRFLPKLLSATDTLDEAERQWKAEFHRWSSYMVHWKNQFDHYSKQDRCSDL
- test_details: Acetylcholinesterase (AChE) small molecule antagonists: enzyme-based qHTS assay with human liver microsomes (AID 1347399); note: % is set by controls: 0 for no effect and ±100 for the full control effect; nearly all actives have a fitted effect of over 60% in size
- measurement_setup: qHTS inhibition; series mostly up to 115 µM
- Description: National Center for Advancing Translational Sciences [NCATS] Division of Preclinical Innovation [DPI] U.S. Environmental Protection Agency [EPA] National Institutes of Environmental Health Sciences [NIEHS] National Toxicology Program [NTP] U.S. Food and Drug Administration [FDA] Acetylcholinesterase (AChE) is the primary cholinesterase in the body that hydrolyzes a key neurotransmitter, acetylcholine. Inhibition of AChE activity can lead to neurotoxicity. […]
Calls of active or inactive are those of the source. Calls come from the whole dose curve.
measured_attribute: outcome

As a guide, the following entries are already answered.
{"compound": "CNC(=O)N(C)c1nc2ccccc2s1", "measured_attribute": "outcome", "meas_value": "inactive"}
{"compound": "Clc1ccccc1N1CCNCC1", "measured_attribute": "outcome", "meas_value": "inactive"}
{"compound": "O=C(Oc1ccc(Br)cc1)N1CCN2CCC1CC2", "measured_attribute": "outcome", "meas_value": "inactive"}
{"compound": "OC(c1ccccc1)(c1ccccc1)C1CCNCC1", "measured_attribute": "outcome", "meas_value": "inactive"}
{"compound": "O=C(CCCN1CCC(n2c(=O)[nH]c3ccccc32)CC1)c1ccc(F)cc1", "measured_attribute": "outcome", "meas_value": "inactive"}

Given CC(C)NCC(O)c1ccc(N)c(C#N)c1 (stereo not drawn) , state its recorded outcome. inactive

Also Cc1ncc(CNC(=O)N(CCCl)N=O)c(N)n1 , if possible. inactive

Also CNCC(=O)c1ccc(O)c(O)c1 , if possible. inactive

Also CCCCOC(=O)c1ccccc1C(=O)O , if possible. inactive

Also O=C(Nc1ccccc1)N(Cc1ccc(Cl)cc1)C1CCCC1 , if possible. inactive

Also O=C1OC(c2ccc(O)c(S(=O)(=O)O)c2)(c2ccc(O)c(S(=O)(=O)O)c2)c2c(Br)c(Br)c(Br)c(Br)c21 , if possible. inactive

Also c1ccc(N2CCNCC2)cc1 , if possible. inactive

Also CCOc1nc(C(Cl)(Cl)Cl)ns1 , if possible. inactive
